Values were extracted from ChEMBL document CHEMBL1146134.

Assign MIC to each entry below.
# System: Cryptococcus neoformans
# measurement.description: Antifungal activity against Cryptococcus neoformans KCCM 50564
# Assay type: functional
Numbers only here, please. The scale is µg/mL.

[in] For Cryptococcus neoformans, give the measured MIC of the entry "COC(=O)c1c(N)nnc2c(C)c(C)c(O)c(Sc3ccccc3)c12"
[out] 1.6

[in] Provide the reported MIC (system: Cryptococcus neoformans) for "COC(=O)c1c(N)nnc2c(C)c(C)c(O)c(Sc3cccc(C)c3)c12"
[out] 1.6

[in] Jot down MIC (Cryptococcus neoformans) of "COC(=O)c1c(N)nnc2c(C)c(C)c(O)c(Cl)c12" .
[out] 25

[in] Under Cryptococcus neoformans: report MIC of COC(=O)C(C#N)C1=C(Sc2cccc(C)c2)C(=O)C(C)=C(C)C1=O (stereo not drawn) .
[out] 50

[in] State, for Cryptococcus neoformans, measured MIC of the molecule listed here: COC(=O)C(C#N)C1=C(Sc2ccc(C)cc2)C(=O)C(C)=C(C)C1=O (stereo not drawn)
[out] 50

[in] Write down the reported MIC (system: Cryptococcus neoformans) of COC(=O)C(C#N)C1=C(Sc2ccccc2)C(=O)C(C)=C(C)C1=O (stereo not drawn)
[out] 12.5

[in] Supply MIC measured with Cryptococcus neoformans for "COC(=O)c1c(N)nnc2c(C)c(C)c(O)c(Sc3ccc(C)c(C)c3)c12" .
[out] 1.6

[in] Please report MIC with Cryptococcus neoformans for item "COC(=O)c1c(N)nnc2c(C)c(C)c(O)c(Sc3cccc(F)c3)c12" .
[out] 6.3

[in] State recorded MIC with Cryptococcus neoformans, entry COC(=O)C(C#N)C1=C(Cl)C(=O)C(C)=C(C)C1=O (stereo not drawn) , no comment.
[out] 6.3

[in] Send back Cryptococcus neoformans MIC of "COC(=O)c1c(N)nnc2c(C)c(C)c(O)c(Sc3ccc(C)cc3)c12" only.
[out] 6.3

[in] Give the observed MIC of COC(=O)C(C#N)C1=C(Sc2cccc(F)c2)C(=O)C(C)=C(C)C1=O (stereo not drawn) for Cryptococcus neoformans.
[out] 50

[in] Specify MIC for "Nc1nc(=O)[nH]cc1F" , system Cryptococcus neoformans.
[out] 12.5

---

Assign MIC to each entry below.
# System: Candida albicans
# measurement.description: Antifungal activity against Candida albicans KCCM 50235
# Assay type: functional

[in] Report value only: MIC, Candida albicans, COC(=O)C(C#N)C1=C(Sc2ccccc2)C(=O)C(C)=C(C)C1=O (stereo not drawn)
[out] 50 µg/mL

[in] Report MIC on Candida albicans for this entry: "COC(=O)c1c(N)nnc2c(C)c(C)c(O)c(Sc3cccc(F)c3)c12"
[out] > 50 µg/mL

[in] # assay system Candida albicans: give MIC of COC(=O)C(C#N)C1=C(Sc2ccc(C)cc2)C(=O)C(C)=C(C)C1=O (stereo not drawn)
[out] > 50 µg/mL

[in] Give MIC only, for COC(=O)C(C#N)C1=C(Sc2cccc(C)c2)C(=O)C(C)=C(C)C1=O (stereo not drawn) , using Candida albicans data.
[out] > 50 µg/mL

[in] Enter recorded MIC with Candida albicans for COC(=O)C(C#N)C1=C(Cl)C(=O)C(C)=C(C)C1=O (stereo not drawn) here.
[out] 50 µg/mL

[in] Provide MIC, tested on Candida albicans, for "COC(=O)c1c(N)nnc2c(C)c(C)c(O)c(Sc3ccc(C)cc3)c12" .
[out] > 50 µg/mL

[in] Retrieve MIC on Candida albicans; query "COC(=O)c1c(N)nnc2c(C)c(C)c(O)c(Sc3ccccc3)c12"
[out] > 50 µg/mL

[in] Specify the recorded MIC for "Nc1nc(=O)[nH]cc1F" , system: Candida albicans.
[out] 6.3 µg/mL

[in] Using Candida albicans as the test system, report measured MIC of "COC(=O)c1c(N)nnc2c(C)c(C)c(O)c(Sc3cccc(C)c3)c12" .
[out] > 50 µg/mL

[in] With Candida albicans as the test system, provide measured MIC for this compound: COC(=O)C(C#N)C1=C(Sc2ccc(C)c(C)c2)C(=O)C(C)=C(C)C1=O (stereo not drawn)
[out] 50 µg/mL

[in] Under Candida albicans, report MIC for COC(=O)C(C#N)C1=C(Sc2cccc(F)c2)C(=O)C(C)=C(C)C1=O (stereo not drawn)
[out] 50 µg/mL

[in] Using Candida albicans as the test system, report measured MIC of "COC(=O)c1c(N)nnc2c(C)c(C)c(O)c(Sc3ccc(C)c(C)c3)c12" .
[out] > 50 µg/mL

[in] Give measured MIC for "COC(=O)c1c(N)nnc2c(C)c(C)c(O)c(Cl)c12" (Candida albicans).
[out] > 50 µg/mL
